System: SF-539 CNS
test: NCI tumour cell line growth inhibition, 48 h

molecule	GI50
COc1cc(-c2nn(-c3cccc(NC(=O)c4cccc(C(F)(F)F)c4)c3)cc2-c2ccncc2)ccc1Cl	0.895 µM
COc1cccc2c(Nc3ccc(C(=O)NCCN4CCNCC4)cc3)cc(-c3ccccc3)nc12	22.9 µM
CCn1c(SC)nnc1-c1cc2c([nH]c3ccccc32)c(-c2cccc(O)c2)n1	1.46 µM
CN1CCN(Cc2ccc(NC(=O)c3cncc(C#Cc4cnc5cccnn45)c3)cc2C(F)(F)F)CC1	0.558 µM
Cc1c(N)nc(C2CC(=O)N2CC(N)C(N)=O)nc1C(=O)NC(C(=O)NC(C)C(O)C(C)C(=O)NC(C(=O)NCCc1nc(-c2nc(C(=O)NCCNCC(C)O)cs2)cs1)C(C)O)C(OC1OC(CO)C(O)C(O)C1OC1OC(CO)C(O)C(OC(N)=O)C1O)c1cnc[nH]1 (configuration not stated)	0.0499 µM
COc1ccc(S(=O)(=O)NCCCNc2nccc(-c3c(-c4ccc(F)cc4)nc4sccn34)n2)cc1	17.1 µM
O=C1COc2c(CCNCCN(C(=O)CCNCCc3ccc(Cl)c(Cl)c3)C3CCCCC3)ccc(O)c2N1	15.1 µM

---

Measured TGI accompanies every entry in the list below.
Tested on: SNB-75 CNS
test: NCI tumour cell line growth inhibition, 48 h
measured-metric: TGI

compound	subject-of-test	observed
COc1ccc(-c2cc(=O)c3cc(OC)c(OC)cc3[nH]2)cc1OC	SNB-75 CNS	> 100 µM
CCc1nc2cc(F)ccc2[nH]c1=O	SNB-75 CNS	> 100 µM
CCNc1nc(-c2ccc(Cl)c(OC)c2)c(-c2ccnc(NCCNS(=O)(=O)c3ccc(Cl)cc3)n2)s1	SNB-75 CNS	29.8 µM
COC(=O)C1=C(C)C(=O)C2(CCCCCC2C(=O)OC)C1 (centres undefined)	SNB-75 CNS	> 100 µM
O=C1OC(c2ccccc2)=N/C1=C\c1ccc(N(CCCl)CCCl)cc1	SNB-75 CNS	> 100 µM
COc1cccc(OC)c1/C=N\N1C(=O)c2ccccc2C1=O	SNB-75 CNS	98.1 µM
O=C(c1ccccc1)c1ccc(N2C(=O)C3C4c5ccccc5C(/C=C/C(=O)c5ccccn5)(c5ccccc54)C3C2=O)cc1 (centres undefined)	SNB-75 CNS	> 100 µM
O=C1C(=O)c2c(ccc3ccccc23)-c2ccccc21	SNB-75 CNS	4.03 µM
CNC(=O)N(C)C(=O)c1ccccc1C(=O)N(C)C(=O)NC	SNB-75 CNS	> 10 µM
Cc1cccc(Cc2cnc(NC(=O)CCCOc3ccc(Cl)cc3)s2)c1	SNB-75 CNS	> 100 µM
O=C(C[N+]1(c2ccccc2)CCOCC1)c1ccccc1	SNB-75 CNS	> 100 µM
O=C(/C=C/c1ccc(OCC(=O)N2CCN(c3ccccc3)CC2)cc1)c1ccccc1	SNB-75 CNS	> 78.9 µM
Nc1cc(O)c2cc(N=Nc3ccc(N=Nc4ccc(N=Nc5ccc6cc(S(=O)(=O)O)cc(S(=O)(=O)O)c6c5)c5ccccc45)c4cc(S(=O)(=O)O)ccc34)c(S(=O)(=O)O)cc2c1	SNB-75 CNS	> 100 µM
CCCCCCCCCCCCCCCC(=O)NCC(OCC)OCC	SNB-75 CNS	> 100 µM
CC1=C(C(=O)OC(C)(C)C)C(c2ccc([N+](=O)[O-])cc2)C(C(=O)OC(C)(C)C)=C(C)N1	SNB-75 CNS	61.2 µM
NC1CC(n2ccc(=O)[nH]c2=O)OC1C(O)CO (centres undefined)	SNB-75 CNS	> 100 µM
O=C1Cc2c([nH]c3c(Br)cccc23)-c2ccccc2N1	SNB-75 CNS	> 100 µM
C/C(=C\CNc1ncnc2c1ncn2CCC#N)CO	SNB-75 CNS	> 100 µM
COc1cc2c(cc1OCCCN1CCN(CCCn3c4ccccc4c4ccccc43)CC1)N=C[C@@H]1CCCN1C2=O	SNB-75 CNS	0.102 µM

Origin of the recorded values: PubChem BioAssay (NCI)
